# system tested: T1, 재조합 마우스 ROR1 단백질 (Acrobiosystems, RO1-M5221) (mouse, UniProt Q9Z139 30-406)
# T1 construct: extracellular domain; bought protein; also called 마우스 ROR1 항원
# T1 sequence (Q9Z139 30-406): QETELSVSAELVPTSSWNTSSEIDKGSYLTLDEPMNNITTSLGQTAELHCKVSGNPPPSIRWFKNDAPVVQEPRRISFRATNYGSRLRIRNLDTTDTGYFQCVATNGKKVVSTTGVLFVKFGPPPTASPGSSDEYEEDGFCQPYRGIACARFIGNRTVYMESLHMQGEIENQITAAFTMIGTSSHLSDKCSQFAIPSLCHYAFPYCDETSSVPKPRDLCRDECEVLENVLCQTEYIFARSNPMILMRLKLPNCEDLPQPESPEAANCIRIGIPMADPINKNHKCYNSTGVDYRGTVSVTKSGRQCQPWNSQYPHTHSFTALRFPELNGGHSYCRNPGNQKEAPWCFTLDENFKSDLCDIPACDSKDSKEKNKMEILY
# measurement description: ELISA, IgG on coated recombinant mouse ROR1
measure: binding result

>  <binder>
CC9 (antibody, human IgG1, lambda, V domains shown, full IgG, human IgG1 heavy and lambda light constant regions; expressed in CHO-S; also called 항-ROR1 IgG 항체 CC9) VH: EVQLLESGGGLVQPGGSLRLSCAASGFTFSSYDMSWVRQAPGKGLEWVSGISHGSGNKYYADSVKGRFTISRDNSKNTLYLQMNSLRAEDTAVYYCAKRLSLRRRPSYYSDNAMDVWGQGTLVTVSS VL: QSVLTQPPSASGTPGQRVTISCTGSSSNIGNNAVNWYQQLPGTAPKLLIYYDSNRPSGVPDRFSGSKSGTSASLAISGLRSEDEADYYCGAWDDSLSGYVFGGGTKLTVLG

>  <value measured>
binds

$$$$
>  <binder>
D2B12 (antibody, human IgG1, lambda, V domains shown, full IgG, human IgG1 heavy and lambda light constant regions; expressed in CHO-S; also called 항-ROR1 IgG 항체 D2B12) VH: EVQLLESGGGLVQPGGSLRLSCAASGFTFSNYDMSWVRQAPGKGLEWVSSISPSSGSSIYYADSVKGRFTISRDNSKNTLYLQMNSLRAEDTAVYYCAKAPGWCQAPSCYYDNAMDVWGQGTLVTVSS VL: QSVLTQPPSASGTPGQRVTISCSGSSSNIGNNDVSWYQQLPGTAPKLLIYDDSQRPSGVPDRFSGSKSGTSASLAISGLRSEDEADYYCGAWDDSLSGYVFGGGTKLTVLG

>  <value measured>
binds

$$$$
>  <binder>
AB4 (antibody, human IgG1, lambda, V domains shown, full IgG, human IgG1 heavy and lambda light constant regions; expressed in CHO-S; also called 항-ROR1 IgG 항체 AB4) VH: EVQLLESGGGLVQPGGSLRLSCAASGFTFSSYDMSWVRQAPGKGLEWVSWISPDSGSIYYADSVKGRFTISRDNSKNTLYLQMNSLRAEDTAVYYCARPTGRFDYWGQGTLVTVSS VL: QSVLTQPPSASGTPGQRVTISCSGSSSNIGNNNVNWYQQLPGTAPKLLIYYDNKRPSGVPDRFSGSKSGTSASLAISGLRSEDEADYYCGTWDASLSGYVFGGGTKLTVLG

>  <value measured>
binds

$$$$
